Origin of measurements: PubChem BioAssay AID504383

biological target: Troponin I, cardiac muscle (Homo sapiens) + Troponin T, cardiac muscle (Homo sapiens) + Troponin C, slow skeletal and cardiac muscles (Homo sapiens) (UniProt P19429+P45379+P63316); experiment: cardiac RTF calcium sensitivity activators, confirmation, biochemical, IANBD-TnC fluorescence, triplicate (AID 504383); conditions: IANBD-labeled cardiac RTF, Ca2+ sensitivity fluorescence, at 7.2 µM, hits give high values, tested at EC20 calcium, 0.472 mM;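 also: 0% = DMSO at 0.472 mM calcium and 100% = DMSO at 2.9 mM calcium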
Hit rate of the full screen: of about 2,500 compounds, about 1,200 (48%) were called active. So high a share suggests a set chosen from earlier hits. Some of the results follow.
property.label: activation

{"columns": ["compound", "activation"],
 "data": [
  ["CN1CCc2cc3c(c4c2C1Cc1ccccc1-4)OCO3 (stereo unspecified)", "13.5% (active)"],
  ["CC1(C)OC(c2ccccc2)=C/C(=C/C=C2C(=O)NC(=O)NC2=O)O1", "6.59% (inactive)"],
  ["CCOCCCNC(=O)C1c2cc(OC)c(OC)cc2C(=O)N2CCCCC12 (stereo unspecified)", "2.74% (inactive)"],
  ["O=Cc1c(C(=O)O)n(Cc2ccc(Cl)cc2)c2ccccc12", "7.27% (inactive)"],
  ["CCOC(=O)c1cc(CC)sc1/N=C/c1c(O)[nH]c(=S)[nH]c1=O", "8.76% (inactive)"]
]}

Would you kindly look at the next entry?
compound `CN1CCN(c2ccc3c(c2)S(=O)(=O)c2ccccc2C3=O)CC1` , activation observed: 2.45% (inactive)
